Every entry's value here was drawn from patent US8980908B2.

Reported pKi values for the following compounds.
- system.tested: KOR (Homo sapiens, UniProt P41145)
- Construct: expressed in transfected cells; host or cells: CHO (Chinese hamster ovary) cell line, membrane preparation
- test.details: Competitive radioligand binding, [3H]diprenorphine, OR-expressed CHO membranes (Examples 5 and 6)
pKi: −log10 of the molar value.

# record.smiles, pKi
data = [
    ("COc1c(C(=O)N[C@H]2CC[C@@]3(O)[C@H]4Cc5ccc(O)c6c5[C@@]3(CCN4CC3CC3)[C@H]2O6)nc(Cl)c2ccccc12", 7.65),
    ("O=C(N[C@H]1CC[C@@]2(O)[C@H]3Cc4ccc(O)c5c4[C@@]2(CCN3CC2CC2)[C@H]1O5)c1cc2cc([N+](=O)[O-])ccc2cn1", 7.55),
]

====

- system.tested: KOR (Homo sapiens, UniProt P41145)
- Construct: expressed in transfected cells; host or cells: CHO (Chinese hamster ovary) cell line, membrane preparation
- test.details: KOR [35S]GTPγS binding assay (Example 5)
- Assay type: biochemical
pEC50: −log10 of the molar value.
measurement.type: pEC50

# record.smiles, measurement.type, readout.number
data = [
    ("O=C(N[C@H]1CC[C@@]2(O)[C@H]3Cc4ccc(O)c5c4[C@@]2(CCN3CC2CC2)[C@H]1O5)c1cc2cc([N+](=O)[O-])ccc2cn1", "pEC50", 7.20),
    ("COc1c(C(=O)N[C@H]2CC[C@@]3(O)[C@H]4Cc5ccc(O)c6c5[C@@]3(CCN4CC3CC3)[C@H]2O6)nc(Cl)c2ccccc12", "pEC50", 7.58),
]

====

- system.tested: KOR (Homo sapiens, UniProt P41145)
- Construct: expressed in transfected cells; host or cells: CHO (Chinese hamster ovary) cell line, membrane preparation
- Type: binding
- study.conditions: n=3; read-out: Ki ± SEM KOR
measurement.type: Ki (nM)

# record.smiles, readout.number
data = [
    ("COC(=O)/C=C/C(=O)N[C@@H]1CC[C@@]2(O)[C@H]3Cc4ccc(O)c5c4[C@@]2(CCN3CC2CC2)[C@H]1O5", 0.94),
]

====

- system.tested: DOR (UniProt P41143)
- Type: binding
- Set-up: rows headed: Ki ± SEM [3H]NTI (δ); other: n=3; Ki ± SEM DOR
- study.conditions: n=3; read-out: Ki ± SEM [3H]NTI (δ)
pKi: −log10 of the molar value.
measurement.type: pKi

# molecule, system.tested, readout.number
rows = [
    ("COC(=O)/C=C/C(=O)N[C@@H]1CC[C@@]2(O)[C@H]3Cc4ccc(O)c5c4[C@@]2(CCN3CC2CC2)[C@H]1O5 [β-FNA, β-funaltrexamine]", "DOR (UniProt P41143)", 7.56),
]

====

- system.tested: DOR (UniProt P41143)
- test.details: DOR [35S]GTPγS binding assay (Example 5)
- Format: biochemical
- Set-up: Ki δ; four experiments; other: three experiments; other: SNC80 5 μM; Ki δ
- study.conditions: read-out: DOR [35S]GTPγS Binding EC50; three experiments
We begin with a simple list: items and their reported EC50.
measurement.type: EC50

# compound, system.tested, result
records = [
    ("COc1c(C(=O)N[C@H]2CC[C@@]3(O)[C@H]4Cc5ccc(O)c6c5[C@@]3(CCN4CC3CC3)[C@H]2O6)nc(Cl)c2ccccc12 [Compound 4]", "DOR (UniProt P41143)", "32.6 nM"),
    ("O=C(N[C@H]1CC[C@@]2(O)[C@H]3Cc4ccc(O)c5c4[C@@]2(CCN3CC2CC2)[C@H]1O5)c1cc2cc([N+](=O)[O-])ccc2cn1 [Compound 11]", "DOR (UniProt P41143)", "108 nM"),
]
